Test system: Schistosoma mansoni
Experiment: WHO-TDR: Schistosomiasis
Format: functional
Parameters: concentration or dose not given beside the values
Would you mind telling me the reported % Inhibition of each entry?
Numbers only, in %.

Would you mind giving % Inhibition for every molecule in the list below?
1. O=S(=O)(c1ccc2ccccc2c1)N1CCN(c2ccc(Nc3cccnc3)nn2)CC1
2. CCCC(=O)N1CCN(c2ccc(Nc3ccncc3)nn2)CC1

Reply |
[0, 0]

====

Would you mind telling me the reported IC50 of each entry?
Assay: WHO-TDR: Cytotoxicity
Type: toxicity, cell-based
Details: human, MRC5 cells

| compound | measured-property | recorded-measurement |
| --- | --- | --- |
| O=C(NCC1CC(=O)N(c2ccc(Cl)cc2)C1)NC1CCCCC1 (stereo not given) | IC50 | > 10.5 µg/mL |

Would you mind giving IC50 for every compound in the list below?
1. O=C(NCCNc1ccc(Nc2ccccn2)nn1)c1cccc(C(F)(F)F)c1
2. CCOc1ccc2nc(N(Cc3cccnc3)C(=O)CSc3ccc(F)cc3)sc2c1
3. Cn1cc(S(=O)(=O)N2CCN(C(c3ccccc3)c3ccccc3)CC2)c(=O)n(C)c1=O
4. Cc1ccnc(Nc2ccc(N3CCN(C(=O)Nc4cccc(F)c4)CC3)nn2)c1
5. CN1CCc2c(sc(NC(=O)C3COc4ccccc4O3)c2-c2nc3ccccc3s2)C1 (stereo not given)
6. CCOC(=O)CCNC(=O)NCC1CC(=O)N(c2ccc(Cl)cc2)C1 (stereo not given)

Reply |
10.1 µg/mL
> 13.6 µg/mL
> 11.5 µg/mL
> 12.2 µg/mL
5.39 µg/mL
> 11 µg/mL

// provenance: ChEMBL document CHEMBL2093137
